The reported numbers originate from PubChem BioAssay (NCI).

# System: SNB-19 CNS
# Measurement notes: NCI-60 one-dose screen, 48 h
# Condition details: 10 µM unless noted
About 83,000 compounds went through this panel and 20% of them were active in at least one assay; those are over-represented in the sample as a whole. Active and inactive are the calls of the source. Rule for the calls: active = growth percent below 10; inactive = the rest.
Outcome codes: true (1) = active, false (0) = inactive

>>> cat("CO[C@@H](C)Cn1c(=O)n(C)c2cnc3ccc(-c4cncc(C(C)(C)O)c4)cc3c21")
"true (1)"
>>> cat("CCN(CC)CCOc1ccc(/C(=C(\\C)c2ccc(Cl)cc2)c2ccc(Cl)cc2)cc1")
"false (0)"
>>> cat("COC(=O)c1[nH]cnc1/N=N/N(C)CCO")
"false (0)"
>>> cat("CC(C)CC(=O)Nc1n[nH]c2c1CN(C(=O)C1CCN(C)CC1)C2(C)C")
"false (0)"
>>> cat("O=C(NO)c1ccc(Cn2c(=O)n(-c3ccccc3F)c(=O)c3ccccc32)cc1")
"true (1)"
>>> cat("CCCCCCCC12Cc3ccccc3C1=Nc1c(c3ccccc3n1C)C2=O (centres undefined)")
"false (0)"
>>> cat("N#CCNC(=O)c1ccc(-c2ccnc(Nc3ccc(N4CCOCC4)cc3)n2)cc1")
"false (0)"
>>> cat("CC(=O)NCC(=O)N1[C@@H]2CC[C@H]1c1ccc(Nc3ncc(C(F)(F)F)c(NC4CCC4)n3)cc12")
"false (0)"
>>> cat("C[C@@H]1COC(Nc2ccc3ncnc(Nc4ccc(OCc5nccs5)c(Cl)c4)c3c2)=N1")
"false (0)"
>>> cat("COc1ccc(OC)c(NC2=C(SCCc3ccccc3)C(=O)c3ccccc3C2=O)c1")
"false (0)"
>>> cat("Cc1cn(-c2cc(NC(=O)c3ccc(C)c(Nc4nccc(-c5cnccn5)n4)c3)cc(C(F)(F)F)c2)cn1")
"false (0)"
>>> cat("CSc1nc2ncnc(SC)c2[nH]1")
"false (0)"
>>> cat("O=c1nc2c(-c3nc4ccccc4s3)n[nH]n2c2sc3c(c12)CCCC3")
"false (0)"
>>> cat("COc1c(C(NC(=O)c2ccccc2)c2sccc2C)cc(Cl)c2cccnc12 (centres undefined)")
"false (0)"
>>> cat("CC1(C=O)NC(=O)NC1=O (centres undefined)")
"false (0)"
>>> cat("Cn1cc(-c2ncnc3ccc(-c4cnc(Cl)c(NS(C)(=O)=O)c4)cc23)c2ccccc21")
"false (0)"
>>> cat("CC(C)NC[C@@H](C(=O)N1CCN(c2ncnc3c2[C@H](C)C[C@H]3O)CC1)c1ccc(Cl)cc1")
"false (0)"
>>> cat("CC(C)(C)OC(=O)N1CCC(O)[C@@H](O[Si](c2ccccc2)(c2ccccc2)C(C)(C)C)[C@H]1/C=C/c1ccccc1 (some centres undefined)")
"false (0)"
>>> cat("COc1cc2c(cc1OCCCCCCN1CCN(c3ncnc4ccccc34)CC1)N=CC1CCCN1C2=O (centres undefined)")
"false (0)"
>>> cat("Cc1cc(NCC(=O)Nc2ccc(-c3nc4ccccc4s3)cc2)no1")
"false (0)"
>>> cat("CC(=O)C1=C(C)NC(SCc2nnc(-c3ccc(C)cc3)o2)=NC1c1ccc(F)cc1 (centres undefined)")
"false (0)"
>>> cat("Cc1[nH]c(/C=C2\\C(=O)Nc3ccc(F)cc32)c(C)c1C(=O)NC[C@H](O)CN1CCOCC1")
"false (0)"
>>> cat("CC(C)OP(=O)(CCC(=O)c1c[nH]c2ccccc12)OC(C)C")
"false (0)"
>>> cat("COc1ccc(-c2cnc(-c3ccc(Cl)cc3)[nH]2)cc1OC")
"false (0)"
>>> cat("Cc1nc(-c2cn3c(n2)-c2ccc(-c4cnn(C(C)(C)C(N)=O)c4)cc2OCC3)n(C(C)C)n1")
"false (0)"
>>> cat("O=C(O)C1(Cc2cccc(Nc3nccs3)n2)CCC(Oc2cccc(Cl)c2F)CC1 (centres undefined)")
"false (0)"
>>> cat("COc1ccc(C2CC(=O)c3c(O)c(OC)c(OC)c(OC)c3O2)cc1O (centres undefined)")
"false (0)"
>>> cat("CCOc1ccc(N=C(C)Nc2ccc(OCC)cc2)cc1")
"false (0)"
>>> cat("COc1cc(Nc2ncc(F)c(Nc3ccc4c(n3)N(COP(=O)(O)O)C(=O)C(C)(C)O4)n2)cc(OC)c1OC")
"false (0)"
>>> cat("O=C1NC(=O)C(c2cnc3ccccn23)=C1c1cn2c3c(cc(F)cc13)CN(C(=O)N1CCCCC1)CC2")
"false (0)"
>>> cat("Cc1ccccc1Nc1nc2nonc2nc1Nc1cccc(C)c1C")
"false (0)"
>>> cat("O=C(N/N=C/c1ccc(Cl)cc1)c1cc(-c2cc3ccccc3o2)nn1-c1ccccc1")
"false (0)"
>>> cat("COc1cc(OC)c(C(=O)/C=C/c2cc3c(cc2OCc2ccccc2)OC(C)(C)CC3)cc1CC=C(C)C")
"false (0)"
>>> cat("O=c1[nH]c([C@@H]2CCCN2)nc2c1oc1ccc(Cl)cc12")
"false (0)"
>>> cat("Cc1cc(Nc2cc(N3CCN(C)CC3)nc(/C=C/c3ccccc3)n2)n[nH]1")
"false (0)"
>>> cat("Cn1cc(-c2[nH]c3cc(NC(=O)[C@H](N)C4CCCCC4)cc4c3c2C=NNC4=O)cn1")
"true (1)"
>>> cat("COC(=O)[C@]12CC[C@@H](C)[C@H](C)[C@@H]1C1=CC[C@@H]3[C@@]4(C)C(C#N)=CC(C)=C4CC[C@@]3(C)[C@]1(C)CC2")
"false (0)"
>>> cat("C=C1C(=O)O[C@H]2[C@H]1CC/C(C=Nc1c(N)cc(C(F)(F)F)cc1C(F)(F)F)=C\\CC[C@@]1(C)O[C@@H]21")
"false (0)"
>>> cat("O=C(Cc1ccc(/C=C/C(=O)c2ncc[nH]2)cc1)Nc1ccc(Br)cc1")
"true (1)"
